# Tested on: HCT-116 cells
# Assay Comment: MTT antiproliferative assay, HCT-116 cells
# Type: cell-based, human
# Condition Info: exposure for 48 h
Readout Name: IC50 (µM)

[[record]]
compound = "COc1ccc(S(=O)(=O)N(Cc2nc(C)c3ccccc3n2)c2cc(OC)c(OC)c(OC)c2)cc1 [Compound 9i]"
assay_target = "HCT-116 cells"
readout_name = "IC50"
recorded_value = 0.7

[[record]]
compound = "O=c1[nH]cc(F)c(=O)[nH]1 [Compound 5-Fu, reference compound]"
assay_target = "HCT-116 cells"
readout_name = "IC50"
recorded_value = 14.4


* * *

# Tested on: HCT-116 cells
# Assay Comment: MTT antiproliferative assay, HCT-116 cells
# Type: cell-based, human
# Condition Info: Homo sapiens, HCT-116, 48 h, exposure for 48 h
Readout Name: IC50 (µM)

[[record]]
molecule = "COc1ccc(S(=O)(=O)N(Cc2nc(C)c3ccccc3n2)c2ccc(C)cc2)cc1 [Compound 14d]"
assay_target = "HCT-116 cells"
readout_name = "IC50"
comparator = ">"
recorded_value = 50

[[record]]
molecule = "COc1cc(C(=O)N(Cc2nc(C)c3ccccc3n2)c2cc(OC)c(OC)c(OC)c2)cc(OC)c1OC [Compound 11i]"
assay_target = "HCT-116 cells"
readout_name = "IC50"
comparator = "="
recorded_value = 20.4

[[record]]
molecule = "COc1ccc(S(=O)(=O)N(Cc2nc(C)c3ccccc3n2)c2ccccc2)cc1 [Compound 14a]"
assay_target = "HCT-116 cells"
readout_name = "IC50"
comparator = "="
recorded_value = 46.9

[[record]]
molecule = "COc1cc(N(Cc2nc(C)c3ccccc3n2)S(=O)(=O)c2ccc(F)cc2)cc(OC)c1OC [Compound 10b]"
assay_target = "HCT-116 cells"
readout_name = "IC50"
comparator = "="
recorded_value = 3.84

[[record]]
molecule = "COc1ccc(C(=O)N(Cc2nc(C)c3ccccc3n2)c2cc(OC)c(OC)c(OC)c2)cc1 [Compound 11h]"
assay_target = "HCT-116 cells"
readout_name = "IC50"
comparator = "="
recorded_value = 10.4

[[record]]
molecule = "COc1ccc(CN(c2cc(OC)c(OC)c(OC)c2)S(=O)(=O)c2ccc(Cl)cc2)cc1"
assay_target = "HCT-116 cells"
readout_name = "IC50"
comparator = ">"
recorded_value = 40

[[record]]
molecule = "COc1ccc(S(=O)(=O)N(Cc2ccccc2)c2cc(OC)c(OC)c(OC)c2)cc1"
assay_target = "HCT-116 cells"
readout_name = "IC50"
comparator = "="
recorded_value = 18.8

[[record]]
molecule = "COc1ccc(S(=O)(=O)N(Cc2ccc(Br)cc2)c2cc(OC)c(OC)c(OC)c2)cc1"
assay_target = "HCT-116 cells"
readout_name = "IC50"
comparator = ">"
recorded_value = 50

